test: Quantitative highthroughput screen to assess conditional lethalithy of P12 Ichikawa cells grown in Human Plasma-Like Medium with dialyzed fetal bovine serum (HPLM+ds) (AID 1963879); conditions: ATP luminescence, 48 h; viability; series mostly up to 45.8 µM; further: nearly all actives have a fitted effect of over 35% in size; further: potency means the concentration at half of the fitted maximal effect
Records with an inconclusive call do not appear. Calls of active or inactive are those of the source. The call rests on the fitted dose curve; in most records, active means well fitted cell-killing curve with a large enough effect; inconclusive means small, poorly fitted or top-dose-only effect; inactive means flat fitted curve, though single readings scatter.
quantity.measured: Potency

1. Cn1cnc2c(F)c(Nc3ccc(Br)cc3Cl)c(C(=O)NOCCO)cc21 : 662 nM (active)
2. COC(=O)N1CC2(CC2)C[C@H](C(=O)NO)[C@H]1C(=O)N1CCN(c2ccccc2)CC1 : 331 nM (active)
3. NS(=O)(=O)c1cc(Cl)c(Cl)c(S(N)(=O)=O)c1 : inactive
4. CNC(=O)c1cc(COc2nnc(Nc3ccc(Cl)cc3)c3ccoc23)ccn1 : inactive
5. NCCc1cnc[nH]1 : inactive
6. CN(C)N=Nc1nc[nH]c1C(N)=O : 2640 nM (active)
